system: Free fatty acid receptor 4 (Homo sapiens)
Sequence (Q5NUL3 whole entry): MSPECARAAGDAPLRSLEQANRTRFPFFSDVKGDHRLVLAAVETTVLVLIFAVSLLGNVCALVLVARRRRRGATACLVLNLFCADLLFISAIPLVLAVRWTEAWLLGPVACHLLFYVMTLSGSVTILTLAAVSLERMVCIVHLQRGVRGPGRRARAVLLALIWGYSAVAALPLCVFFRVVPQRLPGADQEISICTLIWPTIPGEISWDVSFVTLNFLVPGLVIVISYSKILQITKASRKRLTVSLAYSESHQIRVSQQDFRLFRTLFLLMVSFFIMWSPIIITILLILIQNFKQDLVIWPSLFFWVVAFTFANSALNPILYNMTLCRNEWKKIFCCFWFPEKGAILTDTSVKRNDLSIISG
assayName: Agonist activity at human GPR120 expressed in CHO-FlpIn cells after 15 mins by DMR assay

# structure, u, EC50
records = [
    ("Cc1ccc(-n2nc(C)c3cnc(-c4ccc([C@H]5C[C@@H]5C(=O)O)cc4F)cc32)nc1", "nM", 740),
    ("COc1nn(-c2ccccn2)c2cc(-c3ccc([C@H]4C[C@@H]4C(=O)O)cc3)ccc12", "nM", 470),
    ("Cc1nn(-c2ccccn2)c2cc(-c3ccc(CC(C)(C)C(=O)O)cc3)ccc12", "nM", 4100),
]

====

assayName: Drug uptake in mouse brain at 300 mg/kg, po after 1 hr
Type: ADME, organism-based
studyConditions: read-out: Drug uptake

# structure, u, concentration at 1 h
rows = [
    ("COc1nn(-c2ccccn2)c2cc(-c3ccc([C@H]4C[C@@H]4C(=O)O)cc3)ccc12", "µM", 207),
]

====

system: Free fatty acid receptor 4 (Homo sapiens)
assayName: Agonist activity at human GPR120 expressed in CHO-FlpIn cells after 15 mins by DMR assay relative to control
Assay type: cell-based

# molecule, system, u, Efficacy
data = [
    ("Cc1nn(-c2ccccn2)c2cc(-c3ccc([C@H]4C[C@H]4C(=O)O)cc3)ccc12 (racemic)", "Free fatty acid receptor 4 (Homo sapiens)", "%", 9),
    ("COc1nn(-c2ccccn2)c2cc(-c3ccc(CCC(=O)O)cc3)ccc12", "Free fatty acid receptor 4 (Homo sapiens)", "%", 122),
    ("C[C@H](Cc1ccc(-c2ccc3cnn(-c4ccccn4)c3c2)cc1)C(=O)O", "Free fatty acid receptor 4 (Homo sapiens)", "%", 88),
    ("Cc1ccc(-n2nc(C)c3cnc(-c4ccc([C@H]5C[C@@H]5C(=O)O)cc4F)cc32)nc1", "Free fatty acid receptor 4 (Homo sapiens)", "%", 66),
    ("Cc1nn(-c2ccccn2)c2cc(-c3ccc(CC(=O)O)cc3)ccc12", "Free fatty acid receptor 4 (Homo sapiens)", "%", 8),
    ("Cc1ccc(-n2nc(C)c3cnc(-c4ccc([C@H]5C[C@@H]5C(=O)O)cc4)cc32)cc1", "Free fatty acid receptor 4 (Homo sapiens)", "%", 76),
    ("Cc1nn(-c2ccccn2)c2cc(-c3ccc([C@H]4C[C@@H]4C(=O)O)cc3)ccc12", "Free fatty acid receptor 4 (Homo sapiens)", "%", 95),
    ("CCc1nn(-c2ccccn2)c2cc(-c3ccc(CCC(=O)O)cc3)ccc12", "Free fatty acid receptor 4 (Homo sapiens)", "%", 75),
    ("COc1nn(-c2ccccn2)c2cc(-c3ccc([C@H]4C[C@@H]4C(=O)O)cc3)ccc12", "Free fatty acid receptor 4 (Homo sapiens)", "%", 102),
]

====

assayName: Drug uptake in mouse brain at 50 mg/kg, po after 2 hrs
Format: ADME, organism-based
studyConditions: read-out: Drug uptake

# structure, concentration at 2 h
rows = [
    ("COc1nn(-c2ccccn2)c2cc(-c3ccc([C@H]4C[C@@H]4C(=O)O)cc3)cc(F)c12", "147 µM"),
]

====

system: Free fatty acid receptor 1 (Mus musculus) (UniProt Q76JU9)
Sequence (Q76JU9 whole entry): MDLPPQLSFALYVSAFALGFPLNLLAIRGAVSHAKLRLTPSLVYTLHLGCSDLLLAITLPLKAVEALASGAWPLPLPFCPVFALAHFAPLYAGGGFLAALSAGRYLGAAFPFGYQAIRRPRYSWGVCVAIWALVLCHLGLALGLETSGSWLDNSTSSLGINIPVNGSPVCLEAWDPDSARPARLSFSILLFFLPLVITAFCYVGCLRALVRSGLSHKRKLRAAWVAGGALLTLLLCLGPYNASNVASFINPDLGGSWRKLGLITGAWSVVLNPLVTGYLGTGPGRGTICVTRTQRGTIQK
assayName: Agonist activity at mouse GPR40 expressed in HEK293 cells assessed as increase in intracellular calcium level after 5 mins by FLUO-4-AM dye-based FLIPR assay relative to control
Format: functional, cell-based
Simple rule here: Efficacy less than 20% is condition met, otherwise condition not met.

# molecule, labelClass
measured = [
    ("C[C@@H](Cc1ccc(-c2ccc3cnn(-c4ccccn4)c3c2)cc1)C(=O)O", "condition not met"),
    ("Cc1ccc(-n2nc(C)c3c(F)cc(-c4ccc([C@H]5C[C@@H]5C(=O)O)cc4)cc32)cc1", "condition met"),
    ("Cc1nn(-c2ccccn2)c2cc(-c3ccc(CCCC(=O)O)cc3)ccc12", "condition not met"),
    ("Cc1nn(-c2ccccn2)c2cc(-c3ccc([C@H]4C[C@H]4C(=O)O)cc3)ccc12 (racemic)", "condition not met"),
    ("O=C(O)CCc1ccc(-c2cc(F)c3cnn(-c4ccccn4)c3c2)cc1", "condition not met"),
    ("COc1nn(-c2ccccn2)c2cc(-c3ccc(CCC(=O)O)cc3)ccc12", "condition not met"),
    ("N#Cc1cc(-c2ccc(CCC(=O)O)cc2)cc2c1cnn2-c1ccccn1", "condition not met"),
    ("Cc1ccc(-n2nc(C)c3cnc(-c4ccc([C@H]5C[C@@H]5C(=O)O)cc4F)cc32)nc1", "condition met"),
    ("O=C(O)CCc1ccc(-c2ccc3c(OCc4ccccc4)nn(-c4ccccn4)c3c2)cc1", "condition not met"),
    ("COc1nn(-c2ccccn2)c2cc(-c3ccc([C@H]4C[C@@H]4C(=O)O)cc3)ccc12", "condition met"),
    ("N#Cc1nn(-c2ccccn2)c2cc(-c3ccc(CCC(=O)O)cc3)ccc12", "condition not met"),
    ("Cc1nn(-c2ccccn2)c2cc(-c3ccc(CCC(=O)O)cc3)ncc12", "condition not met"),
    ("C[C@H](Cc1ccc(-c2ccc3cnn(-c4ccccn4)c3c2)cc1)C(=O)O", "condition met"),
    ("Cc1nn(-c2ccccn2)c2cc(-c3ccc(CCC(=O)O)cc3)ccc12", "condition not met"),
    ("Cc1nn(-c2ccccn2)c2cc(-c3cccc(CCC(=O)O)c3)ccc12", "condition met"),
    ("Cc1nn(-c2ccccn2)c2cc(-c3ccc(C(C)CC(=O)O)cc3)ncc12 (stereo unspecified)", "condition not met"),
    ("Cc1ccc(-n2nc(C)c3cnc(-c4ccc([C@H]5C[C@@H]5C(=O)O)cc4)cc32)cc1", "condition met"),
    ("COc1cc(CCC(=O)O)ccc1-c1ccc2c(C)nn(-c3ccccn3)c2c1", "condition not met"),
    ("Cc1nn(-c2ccccn2)c2cc(-c3ccc(CCC(=O)O)cc3C#N)ccc12", "condition not met"),
    ("Cc1nn(-c2ccccn2)c2cc(-c3ccc([C@H]4C[C@@H]4C(=O)O)cc3)ccc12", "condition met"),
    ("Cc1nn(-c2ccccn2)c2cc(-c3ccc([C@@H]4C[C@H]4C(=O)O)cc3)ccc12", "condition met"),
    ("COc1nn(-c2ccccn2)c2cc(-c3ccc([C@H]4C[C@@H]4C(=O)O)cc3)cc(F)c12", "condition met"),
    ("O=C(O)CCc1ccc(-c2ccc3cnn(-c4ccccn4)c3c2)cc1", "condition not met"),
    ("Cc1nn(-c2ccccn2)c2cc(-c3ccc([C@H]4C[C@@H]4C(=O)O)cc3)ccc12 (racemic)", "condition met"),
    ("Cc1nn(-c2ccccn2)c2cc(-c3ccc(CC(C)(C)C(=O)O)cc3)ccc12", "condition met"),
    ("COc1nn(-c2ccc(C)cc2)c2cc(-c3ccc([C@H]4C[C@@H]4C(=O)O)cc3)cc(F)c12", "condition met"),
    ("Cc1ccc(-n2nc(C)c3ccc(-c4ccc([C@H]5C[C@@H]5C(=O)O)cc4)cc32)cc1", "condition met"),
    ("Cc1nn(-c2ccccn2)c2cc(-c3ccc(CCC(=O)O)cc3Cl)ccc12", "condition not met"),
    ("Cc1nn(-c2ccccn2)c2cc(-c3ccc(CCC(=O)O)cc3F)ccc12", "condition not met"),
    ("Cc1cc(-c2ccc(CCC(=O)O)cc2)cc2c1cnn2-c1ccccn1", "condition not met"),
    ("CCc1nn(-c2ccccn2)c2cc(-c3ccc(CCC(=O)O)cc3)ccc12", "condition not met"),
]
